# TESTED SYSTEM: α-glucosidase enzyme from Saccharomyces cerevisiae type 1
# ASSAY: α-Glucosidase inhibitory assay (p-NPG substrate, absorbance at 405 nm)
# TEST PARAMETERS: S. cerevisiae α-glucosidase type 1, p-NPG 2 mM, pH 6.5, 37°C, 30 min, triplicate
# Experimental: For phosphate-buffered saline (PBS), NaH₂PO₄ (1.4 g), NaCl (8 g), KCl (0.2 g), and KH₂PO4 (0.2 g) were dissolved in deionized H2O (1 L) at 20°C. […] The plate was pre-incubated at 37°C for 10 min, and then 10 μL of p-NPG (2 mM) solution was added to the mixture; its absorbance at 0 min was measured at a wavelength of 405 nm. The reaction mixture was incubated at 37°C for 30 min, and subsequently, its absorbance was measured. […]
The entries below come with measured pIC50 values attached.
Notebook: values listed as pIC50 are -log10 of the concentration (mol/L).

Please review the following examples before continuing.
COMPOUND: O=c1c2ccccc2n2nc(Oc3ccccc3)nc2n1CCN1CCCCC1 [Compound 12]
TESTED SYSTEM: α-glucosidase enzyme from Saccharomyces cerevisiae type 1
pIC50: 4.01

COMPOUND: C=CCn1c(=O)c2ccccc2n2nc(S(C)(=O)=O)nc12 [Compound 8]
TESTED SYSTEM: α-glucosidase enzyme from Saccharomyces cerevisiae type 1
pIC50: 4.54

COMPOUND: CS(=O)(=O)c1nc2[nH]c(=O)c3ccccc3n2n1 [Compound 2]
TESTED SYSTEM: α-glucosidase enzyme from Saccharomyces cerevisiae type 1
pIC50: 3.74

COMPOUND: O=c1[nH]c2nc(Oc3ccccc3)nn2c2ccccc12 [Compound 3]
TESTED SYSTEM: α-glucosidase enzyme from Saccharomyces cerevisiae type 1
pIC50: 4.08

COMPOUND: CCn1c(=O)c2ccccc2n2nc(SC)nc12 [Compound 4]
TESTED SYSTEM: α-glucosidase enzyme from Saccharomyces cerevisiae type 1
pIC50: 4.34

Query: Please look at this compound and report its pIC50: CSc1nc2[nH]c(=O)c3ccccc3n2n1 [Compound 1]
Response: 3.81

Query: Please look at this compound and report its pIC50: O=C1c2ccccc2C(=O)N1CCn1c(=O)c2ccccc2n2nc(Oc3ccccc3)nc12 [Compound 14]
Response: 4.90
